Entries annotated with measured pIC50
- studySystem: UniProt:P14902
- Sequence (P14902 whole entry): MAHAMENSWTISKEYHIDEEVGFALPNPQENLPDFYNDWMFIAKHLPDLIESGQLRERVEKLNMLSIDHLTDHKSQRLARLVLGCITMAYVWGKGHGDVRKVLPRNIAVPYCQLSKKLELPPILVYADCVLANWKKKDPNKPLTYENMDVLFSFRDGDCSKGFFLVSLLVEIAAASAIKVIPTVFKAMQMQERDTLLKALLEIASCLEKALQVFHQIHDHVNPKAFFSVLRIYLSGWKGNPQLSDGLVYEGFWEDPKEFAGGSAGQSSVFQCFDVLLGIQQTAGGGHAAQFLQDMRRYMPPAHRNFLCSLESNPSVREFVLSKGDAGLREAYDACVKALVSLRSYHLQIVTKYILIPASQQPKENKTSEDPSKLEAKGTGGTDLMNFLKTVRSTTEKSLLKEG
- protocolNotes: IDO1 Cellular Assay in Frozen HEK293 Cells Transiently Transfected with Human IDO1
- Format: cell-based
- settings: HEK293 cells transiently transfected with human IDO1; read-out: IDO1 HEK293 Cell Assay, IC50
The quantity pIC50 is defined as the negative base-10 logarithm of the molar concentration.

>>> df
                                   compound  quantitymeasured  resultnumber
0  N#C/N=C(\N)NCCSc1nonc1/C(=N/O)Nc1ccc(F)c(Br)c1             pIC50          7.45

## Input I'm curious: which pIC50 was measured for O=c1[nH]nc(CSc2nonc2/C(=N/O)Nc2ccc(F)c(Br)c2)cc1C(F)(F)F tested on UniProt:P14902?
## Output 6.44

## Input I'm curious: which pIC50 was measured for CS(=O)(=O)NCCSc1nonc1/C(=N/O)Nc1ccc(F)c(Cl)c1 tested on UniProt:P14902?
## Output 7.79

## Input I'm curious: which pIC50 was measured for O/N=C(\Nc1ccc(F)c(Br)c1)c1nonc1SCC1CNC1 tested on UniProt:P14902?
## Output 6.82

## Input I'm curious: which pIC50 was measured for N#Cc1cc(N/C(=N\O)c2nonc2SCC(=O)NC2COC2)ccc1F tested on UniProt:P14902?
## Output 6.39

###

- studySystem: UniProtKB P14902
- protocolNotes: IDO1 Cellular Assay in Hela Cells Stimulated with IFNγ
- Format: cell-based
- settings: Hela cells stimulated with IFNγ 100 ng/mL; read-out: IDO1 HELA Cell Assay, IC50
quantityMeasured: IC50 (nM)
Value expressed in nM; do not type the unit.

                                   compound       studysystem  unitofmeasurement  resultnumber
0  OCCSc1nonc1/C(=N/O)Nc1ccc(F)c(C(F)(F)F)c1 [Example 50]  UniProtKB P14902                 nM          45.7
1  Cc1nccn1CCSc1nonc1C(=NO)Nc1ccc(F)c(Br)c1 [Example 151]  UniProtKB P14902                 nM           156
2  O/N=C(\Nc1ccc(F)c(Br)c1)c1nonc1SC1CCNC1 (stereo not drawn) [Example 66]  UniProtKB P14902                 nM          92.3
3  OC[C@H](O)CSc1nonc1/C(=N/O)Nc1ccc(F)c(C(F)F)c1 [Example 167]  UniProtKB P14902                 nM          97.3
4  NC(CCSc1nonc1/C(=N/O)Nc1ccc(F)c(Br)c1)C(=O)O (stereo not drawn) [Example 57]  UniProtKB P14902                 nM           131

## Input Name the reported IC50 value associated with the compound NC(=O)CCSc1nonc1/C(=N/O)Nc1ccc(F)c(Br)c1 [Example 96]
## Output 24.7

## Input Name the reported IC50 value associated with the compound ON=C(Nc1ccc(F)c(Br)c1)c1nonc1SCCF [Example 160]
## Output 126

## Input Name the reported IC50 value associated with the compound CN1C(=O)NC[C@@H]1CSc1nonc1/C(=N/O)Nc1ccc(F)c(C#N)c1 [Example 150]
## Output 820

## Input Name the reported IC50 value associated with the compound CC(=O)NCCOc1nonc1/C(=N/O)Nc1ccc(F)c(Br)c1 [Example 5]
## Output 94

Hello, the source for this data is patent US10538497B2, in case you need it.
